Entries and their Log 1/K values follow.
Target: UniProt P04278
Sequence (whole entry): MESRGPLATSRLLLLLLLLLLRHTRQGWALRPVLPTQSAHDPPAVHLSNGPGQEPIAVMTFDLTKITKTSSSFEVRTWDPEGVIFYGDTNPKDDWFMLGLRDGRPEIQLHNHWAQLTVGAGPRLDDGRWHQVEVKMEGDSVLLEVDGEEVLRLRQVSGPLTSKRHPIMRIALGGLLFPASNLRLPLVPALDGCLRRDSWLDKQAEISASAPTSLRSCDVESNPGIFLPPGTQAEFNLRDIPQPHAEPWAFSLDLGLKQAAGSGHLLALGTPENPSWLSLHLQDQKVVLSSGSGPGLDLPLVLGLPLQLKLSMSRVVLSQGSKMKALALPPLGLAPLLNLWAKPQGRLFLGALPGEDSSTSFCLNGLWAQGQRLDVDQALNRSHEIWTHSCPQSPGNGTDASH
parameter: Log 1/K

INSERT INTO measurements (compound, system_under_test, parameter, recorded_measurement) VALUES
  ('CC(=O)[C@H]1CC[C@H]2[C@@H]3CC=C4C[C@@H](O)CC[C@]4(C)[C@H]3CC[C@]12C', 'UniProt P04278', 'Log 1/K', -7.15),
  ('C[C@]12CCC(=O)C=C1CCC1C3CC[C@H](C(=O)CO)[C@@]34C[C@H](OC4O)C12 (stereo not given in full)', 'UniProt P04278', 'Log 1/K', -5.32),
  ('C[C@]12CC[C@H](O)CC1=CC[C@@H]1[C@@H]2CC[C@]2(C)C(=O)CC[C@@H]12', 'UniProt P04278', 'Log 1/K', -7.82),
  ('CC(=O)[C@@]1(O)CC[C@H]2[C@@H]3CC=C4C[C@@H](O)CC[C@]4(C)[C@H]3CC[C@@]21C', 'UniProt P04278', 'Log 1/K', -6.36),
  ('CC(=O)[C@H]1CC[C@H]2[C@@H]3CCC4=CC(=O)CC[C@]4(C)[C@H]3CC[C@]12C', 'UniProt P04278', 'Log 1/K', -6.94),
  ('C[C@]12CCC(=O)C=C1CC[C@@H]1[C@@H]2CC[C@@]2(C)[C@H]1CC[C@]2(O)C(=O)CO', 'UniProt P04278', 'Log 1/K', -7.2),
  ('CCCCc1cc2c(cn1)[nH]c1ccccc12', 'UniProt P04278', 'Log 1/K', -9.11),
  ('CC(=O)[C@@]1(O)CC[C@H]2[C@@H]3CCC4=CC(=O)CC[C@]4(C)[C@H]3CC[C@@]21C', 'UniProt P04278', 'Log 1/K', -7),
  ('C[C@]12CC[C@H]3[C@@H](CCC4=CC(=O)CC[C@@]43C)[C@@H]1CC[C@@H]2C(=O)CO', 'UniProt P04278', 'Log 1/K', -7.38),
  ('C[C@]12CCC(=O)C=C1CC[C@@H]1[C@@H]2C(=O)C[C@@]2(C)[C@H]1CC[C@]2(O)C(=O)CO', 'UniProt P04278', 'Log 1/K', -6.43),
  ('C[C@]12C[C@H](O)[C@H]3[C@@H](CCC4=CC(=O)CC[C@@]43C)[C@@H]1CC[C@@H]2C(=O)CO', 'UniProt P04278', 'Log 1/K', -6.34),
  ('C[C@]12CCC(=O)C=C1CC[C@@H]1[C@@H]2[C@@H](O)C[C@@]2(C)[C@H]1CC[C@]2(O)C(=O)CO', 'UniProt P04278', 'Log 1/K', -6.2),
  ('C[C@]12CCC(=O)C=C1CC[C@@H]1[C@@H]2CC[C@]2(C)C(=O)CC[C@@H]12', 'UniProt P04278', 'Log 1/K', -7.46),
  ('C[C@]12CCC3C4=C(CCC3C1CCC2=O)CC(=O)C=C4 (stereo not given in full)', 'UniProt P04278', 'Log 1/K', -8.18),
  ('C[C@]12CC[C@@H](O)C[C@H]1CC[C@@H]1[C@@H]2CC[C@]2(C)C(=O)CC[C@@H]12', 'UniProt P04278', 'Log 1/K', -6.15);
